Target: alpha2C receptor (Homo sapiens)
Construct: expressed in transfected cells; host or cells: NIH-3T3
Sequence (P18825 whole entry): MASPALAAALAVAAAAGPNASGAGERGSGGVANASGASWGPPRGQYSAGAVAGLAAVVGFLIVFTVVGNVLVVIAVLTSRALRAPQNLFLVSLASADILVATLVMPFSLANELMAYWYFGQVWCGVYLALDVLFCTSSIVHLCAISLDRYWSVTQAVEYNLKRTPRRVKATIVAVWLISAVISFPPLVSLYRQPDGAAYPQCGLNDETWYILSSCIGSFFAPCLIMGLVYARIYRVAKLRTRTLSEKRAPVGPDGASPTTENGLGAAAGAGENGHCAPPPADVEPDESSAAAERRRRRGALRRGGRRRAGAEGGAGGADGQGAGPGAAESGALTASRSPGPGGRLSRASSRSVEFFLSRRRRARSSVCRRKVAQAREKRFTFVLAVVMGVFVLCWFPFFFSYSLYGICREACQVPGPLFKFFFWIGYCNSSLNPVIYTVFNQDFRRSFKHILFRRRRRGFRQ
Test: RSAT assay, alpha 2C
Format: cell-based
Conditions: RSAT; ratio of maximal effect to standard full agonist brimonidine (UK14304)

| chem-smiles | (rel. efficacy) Alpha 2C |
| --- | --- |
| Fc1ccc(Br)cc1CNC1=NCCS1 | 0.64 |
| Brc1cccc(CNC2=NCCS2)c1 | 0.5 |
| Fc1c(Cl)cccc1CNC1=NCCS1 | 0.7 |
| Fc1ccc(Br)c(CNC2=NCCS2)c1 | 0.67 |
| Clc1cccc(CNC2=NCCO2)c1Cl | 0.91 |
| Clc1c(Br)cccc1CNC1=NCCS1 | 0.98 |
| Brc1ccccc1CNC1=NCCO1 | 0.85 |
| Clc1cccc(CNC2=NCCS2)c1Cl | 0.68 |
